# target or test system: FLAG-tagged PDE2A1 (amino acids 2-941) (Homo sapiens (Human), UniProt O00408)
# Sequence (O00408 2-941): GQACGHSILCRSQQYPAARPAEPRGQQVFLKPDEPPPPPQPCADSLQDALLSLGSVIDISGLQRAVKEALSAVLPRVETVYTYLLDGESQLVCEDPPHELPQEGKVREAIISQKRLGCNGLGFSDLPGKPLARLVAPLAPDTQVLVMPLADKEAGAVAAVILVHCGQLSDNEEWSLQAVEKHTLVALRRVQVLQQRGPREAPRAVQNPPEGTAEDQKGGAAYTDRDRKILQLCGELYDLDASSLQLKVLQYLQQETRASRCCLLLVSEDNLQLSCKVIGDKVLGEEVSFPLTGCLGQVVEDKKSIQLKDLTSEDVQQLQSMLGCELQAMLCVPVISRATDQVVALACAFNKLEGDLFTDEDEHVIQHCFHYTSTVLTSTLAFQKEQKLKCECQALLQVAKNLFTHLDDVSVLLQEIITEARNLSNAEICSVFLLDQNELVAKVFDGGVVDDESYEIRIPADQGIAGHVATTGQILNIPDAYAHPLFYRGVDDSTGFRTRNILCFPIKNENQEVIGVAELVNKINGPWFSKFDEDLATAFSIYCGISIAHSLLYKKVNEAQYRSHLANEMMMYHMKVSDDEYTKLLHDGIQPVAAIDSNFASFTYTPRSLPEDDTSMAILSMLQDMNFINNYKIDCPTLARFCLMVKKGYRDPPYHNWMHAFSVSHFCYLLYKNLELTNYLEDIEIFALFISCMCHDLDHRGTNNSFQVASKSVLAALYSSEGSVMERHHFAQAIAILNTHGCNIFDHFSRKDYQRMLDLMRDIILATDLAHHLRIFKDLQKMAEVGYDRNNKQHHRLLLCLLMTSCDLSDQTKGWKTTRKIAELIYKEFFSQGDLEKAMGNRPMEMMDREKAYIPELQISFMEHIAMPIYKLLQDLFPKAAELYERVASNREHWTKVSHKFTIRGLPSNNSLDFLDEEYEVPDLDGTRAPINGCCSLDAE
reported metric: IC50

Indicate its recorded IC50; the compound in question is Cc1cc(C2CC2)n2nc(NCc3ccc4c(c3)OCC4)nc2n1
1 to 10 µM

I have 2 compounds here; please give me IC50 for each one.
1. Cc1cc(C2CCOCC2)n2nc(NCc3cc(C#N)ccc3F)nc2n1
2. Cc1cc(C2CCOCC2)n2nc(NCc3ccccc3C)nc2n1

0.1 to 1 µM
0.1 to 1 µM

Go through the items and report each one's IC50.
1. COc1ccc(CNc2nc3nc(C)cc(C4CC4)n3n2)cc1
2. Cc1cc(C2CC2)n2nc(NCc3ccc4c(c3)CCO4)nc2n1
3. CCC(C)c1cc(C)nc2nc(NCc3ccc(OC)cc3)nn12 (stereo not shown)
4. Cc1cc(C2CCOCC2)n2nc(NCc3c(F)cncc3F)nc2n1

["1 to 10 µM", "1 to 10 µM", "0.1 to 1 µM", "0.1 to 1 µM"]

# batch size: 8; output IC50 per entry
1. COc1ccc(CNc2nc3nc(C)cc(C4(C)CC4)n3n2)cc1
2. COc1ccc(CNc2nc3nc(C)cc(C4CCCO4)n3n2)cc1 (stereo not shown)
3. Cc1cc(C(C)(C)C)n2nc(NCc3cccc(Cl)c3)nc2n1
4. Cc1cccc(CNc2nc3nc(C)cc(C4CCOCC4)n3n2)c1
5. Cc1ccc(F)c(CNc2nc3nc(C)cc(C4CCOCC4)n3n2)c1
6. Cc1cc(C2CCOCC2)n2nc(NCc3cc(F)cc(F)c3)nc2n1
7. Cc1cc(C2CCOCC2)n2nc(NCc3ccccc3Cl)nc2n1
8. Cc1cc(C2CCOCC2)n2nc(NCc3c(F)cccc3F)nc2n1

["0.1 to 1 µM", "1 to 10 µM", "0.1 to 1 µM", "0.1 to 1 µM", "0.1 to 1 µM", "0.1 to 1 µM", "0.1 to 1 µM", "0.1 to 1 µM"]

Below is a list of compounds. For each, state its recorded IC50.
1. Cc1cc(C2CCOCC2)n2nc(NCc3ccccc3F)nc2n1
2. COc1ccc([C@@H](C)Nc2nc3nc(C)cc(C4CCOCC4)n3n2)cc1
3. Cc1cc(C2CCOCC2)n2nc(NCc3cn(CC(F)F)nc3C)nc2n1
4. Cc1cc(C(C)C)n2nc(NCc3ccc4c(c3)CCC4)nc2n1
5. Cc1cc(C2CCOCC2)n2nc(NCc3ccc4c(c3)OC(F)(F)O4)nc2n1
6. Cc1cc(C2CCOCC2)n2nc(NCc3ccc(F)c(F)c3)nc2n1
7. Cc1cc(C(C)C)n2nc(NCc3ccccc3)nc2n1

0.1 to 1 µM
0.1 to 1 µM
0.1 to 1 µM
0.1 to 1 µM
0.1 to 1 µM
0.1 to 1 µM
1 to 10 µM

Okay, here is my list. What is IC50 for each of these?
1. Cc1cc(C2CC2)n2nc(NCc3cn(-c4ccccc4)nc3C)nc2n1
2. COc1cccc(CNc2nc3nc(C)cc(C4CCOCC4)n3n2)c1
3. Cc1cc(C2CCOCC2)n2nc(NCc3cc(F)ccc3F)nc2n1
4. COc1ccc(CNc2nc3nc(C)cc(C(C)C)n3n2)cc1

0.1 to 1 µM
0.1 to 1 µM
0.1 to 1 µM
1 to 10 µM

For the 5 compounds below, give their IC50 values.
1. COc1ccc(CNc2nc3nc(C)cc(C4CCOC4)n3n2)cc1 (stereo not shown)
2. COc1ccc(CNc2nc3nc(C)cc(C(C)(C)OC)n3n2)cc1
3. Cc1cc(C2CCOCC2)n2nc(NCc3ccc(F)cc3F)nc2n1
4. Cc1cc(C(C)C)n2nc(NCc3cccc(Cl)c3)nc2n1
5. Cc1cc(C2CCOCC2)n2nc(NCc3cccc(F)c3)nc2n1

1. 0.1 to 1 µM
2. 1 to 10 µM
3. 0.1 to 1 µM
4. 1 to 10 µM
5. 0.1 to 1 µM

====

What follows is a collection of pIC50 values obtained with FLAG-tagged PDE2A1 (amino acids 2-941) (Homo sapiens (Human), UniProt O00408).
pIC50: −log10 of the molar value.

See these solved cases before continuing.
Entry Cc1cc(C2CCCC2)n2nc(NCc3ccc4c(c3)CCC4)nc2n1 needs its pIC50 filled in; supply it.
6.00 to 7.00

Entry Cc1cc(C2CCOCC2)n2nc(NCc3ccccc3)nc2n1 needs its pIC50 filled in; supply it.
6.00 to 7.00

Specify measured pIC50 for Cc1cc(C2CCOCC2)n2nc(NCc3ccc(F)cc3)nc2n1 .
6.00 to 7.00

Give a short answer stating reported pIC50 for COc1ccc(CNc2nc3nc(C)cc(C4CCOCC4)n3n2)cc1 .
6.00 to 7.00

Quick one: give me pIC50 for each item below, same order please.
1. COc1ccc(CNc2nc3nc(C)cc(C4CCC(F)(F)CC4)n3n2)cc1
2. COc1ccc([C@H](C)Nc2nc3nc(C)cc(C4CCOCC4)n3n2)cc1
3. Cc1cc(C2CCOCC2)n2nc(NCc3cccc(C#N)c3)nc2n1

6.00 to 7.00
5.00 to 6.00
6.00 to 7.00

Go through the items and report each one's pIC50.
1. COc1ccc(CNc2nc3nc(C)cc(C4(C)CCOCC4)n3n2)cc1
2. Cc1cc(CNc2nc3nc(C)cc(C4(C)CCOCC4)n3n2)ccn1

1: 6.00 to 7.00; 2: 6.00 to 7.00
